biological target: human GPCR 5-HT2A (Homo sapiens, UniProt P28223); test: Cellular aequorin-based functional assay, 5-HT2A; format: cell-based; details: agonist mode, CHO-K1 aequorin cells
Sequence (P28223 whole entry): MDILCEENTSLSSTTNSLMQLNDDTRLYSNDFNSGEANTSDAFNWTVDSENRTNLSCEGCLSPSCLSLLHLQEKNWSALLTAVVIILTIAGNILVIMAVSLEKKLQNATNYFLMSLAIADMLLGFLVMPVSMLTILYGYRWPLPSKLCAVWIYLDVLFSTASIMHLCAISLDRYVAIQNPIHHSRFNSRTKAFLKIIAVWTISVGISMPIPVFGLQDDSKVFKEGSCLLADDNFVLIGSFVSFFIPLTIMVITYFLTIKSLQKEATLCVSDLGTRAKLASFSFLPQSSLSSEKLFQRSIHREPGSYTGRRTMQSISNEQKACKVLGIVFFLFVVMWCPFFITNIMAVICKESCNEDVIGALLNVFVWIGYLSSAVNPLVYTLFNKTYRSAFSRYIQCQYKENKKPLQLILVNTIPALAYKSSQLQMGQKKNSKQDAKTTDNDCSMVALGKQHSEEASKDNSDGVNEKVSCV
quantity.kind: 5-HT2A AGO EC50 [nM]

| smiles.record | quantity.kind | reported.value |
| --- | --- | --- |
| COc1cccc(Cn2c(C(F)(F)F)cc3c(N4CCNCC4)cccc32)c1 | 5-HT2A AGO EC50 [nM] | N.C. |
| CN1CCN(c2cccc3c2cc(C(F)(F)F)n3Cc2cccc(Cl)c2)CC1 | 5-HT2A AGO EC50 [nM] | N.C. |
| CN1CCN(c2cccc3c2cc(C(F)(F)F)n3Cc2ccc(F)c(F)c2)CC1 | 5-HT2A AGO EC50 [nM] | N.C. |
| Fc1cc(Cn2c(C(F)(F)F)cc3c(N4CCNCC4)cccc32)ccc1Cl | 5-HT2A AGO EC50 [nM] | N.C. |
| CN1CCN(c2cccc3c2cc(C(F)(F)F)n3Cc2cccs2)CC1 | 5-HT2A AGO EC50 [nM] | N.C. |
| FC(F)(F)c1cc2c(N3CCNCC3)cccc2n1Cc1ccsc1 | 5-HT2A AGO EC50 [nM] | N.C. |
| CN1CCN(c2cccc3c2cc(C(F)(F)F)n3Cc2ccco2)CC1 | 5-HT2A AGO EC50 [nM] | N.C. |
| FC(F)(F)c1cc2c(N3CCNCC3)cccc2n1Cc1cccs1 | 5-HT2A AGO EC50 [nM] | N.C. |
| CN1CCN(c2cccc3c2cc(C(F)(F)F)n3Cc2ccc(Cl)c(Cl)c2)CC1 | 5-HT2A AGO EC50 [nM] | N.C. |
| Fc1cccc(Cn2c(C(F)(F)F)nc3c(N4CCNCC4)cccc32)c1 | 5-HT2A AGO EC50 [nM] | N.C. |
| Cc1ccc(Cn2c(C(F)(F)F)cc3c(N4CCNCC4)cccc32)o1 | 5-HT2A AGO EC50 [nM] | N.C. |
| CN1CCN(c2cccc3c2cc(C(F)(F)F)n3Cc2ccsc2)CC1 | 5-HT2A AGO EC50 [nM] | N.C. |

* * *

biological target: human GPCR 5-HT6 (Homo sapiens, UniProt P50406); assay: Cellular aequorin-based functional assay, 5-HT6; type: cell-based; conditions: antagonist mode, reference agonist serotonin 40 nM (EC80); read-out: 5-HT6 ANT Kb
Sequence (P50406 whole entry): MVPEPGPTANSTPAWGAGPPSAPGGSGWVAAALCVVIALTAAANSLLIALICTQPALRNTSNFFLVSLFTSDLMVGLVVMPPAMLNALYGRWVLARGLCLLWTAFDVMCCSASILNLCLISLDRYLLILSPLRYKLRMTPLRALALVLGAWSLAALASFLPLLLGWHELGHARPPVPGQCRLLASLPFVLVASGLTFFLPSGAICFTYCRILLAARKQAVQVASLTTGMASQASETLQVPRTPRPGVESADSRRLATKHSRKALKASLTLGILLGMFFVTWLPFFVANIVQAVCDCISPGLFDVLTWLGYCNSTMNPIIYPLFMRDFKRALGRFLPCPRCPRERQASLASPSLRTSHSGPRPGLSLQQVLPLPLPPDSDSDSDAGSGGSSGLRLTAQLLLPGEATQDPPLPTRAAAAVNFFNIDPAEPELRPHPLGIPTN
Lab note: anything with Kb below 0.3 nM is marked Met; values at 0.3 nM or higher are marked Not met.

| smiles.record | system | assigned.label |
| --- | --- | --- |
| CN1CCN(c2cccc3c2cc(C(F)(F)F)n3Cc2cccc(Cl)c2)CC1 | human GPCR 5-HT6 (Homo sapiens, UniProt P50406) | Not met |
| FC(F)(F)c1nc2c(N3CCNCC3)cccc2n1Cc1ccccc1 | human GPCR 5-HT6 (Homo sapiens, UniProt P50406) | Not met |
| Fc1ccc(Cn2c(C(F)(F)F)cc3c(N4CCNCC4)cccc32)cc1F | human GPCR 5-HT6 (Homo sapiens, UniProt P50406) | Not met |
| Cc1ccc(Cn2c(C(F)(F)F)cc3c(N4CCNCC4)cccc32)o1 | human GPCR 5-HT6 (Homo sapiens, UniProt P50406) | Met |
| CN1CCN(c2cccc3c2cc(C(F)(F)F)n3Cc2ccsc2)CC1 | human GPCR 5-HT6 (Homo sapiens, UniProt P50406) | Not met |

* * *

target: human 5-HT2A receptor (Homo sapiens, UniProt P28223); test: 5-HT2A receptor binding assay ([3H]-ketanserin radioligand)
quantity.kind: Ki (nM)

| smiles.record | system | reported.value |
| --- | --- | --- |
| FC(F)(F)c1cc2c(N3CCNCC3)cccc2n1Cc1ccccc1 | human 5-HT2A receptor (Homo sapiens, UniProt P28223) | 2.1 |
| FC(F)(F)c1cc2c(N3CCNCC3)cccc2n1Cc1cccs1 | human 5-HT2A receptor (Homo sapiens, UniProt P28223) | 0.33 |
| FC(F)(F)c1cc2c(N3CCNCC3)cccc2n1Cc1ccco1 | human 5-HT2A receptor (Homo sapiens, UniProt P28223) | 1.6 |
| Cc1ccc(Cn2c(C(F)(F)F)cc3c(N4CCNCC4)cccc32)s1 | human 5-HT2A receptor (Homo sapiens, UniProt P28223) | 0.37 |
| FC(F)(F)c1cc2c(N3CCNCC3)cccc2n1Cc1ccsc1 | human 5-HT2A receptor (Homo sapiens, UniProt P28223) | 1.5 |
| FC(F)(F)c1cc2c(N3CCNCC3)cccc2n1Cc1cccc(Cl)c1 | human 5-HT2A receptor (Homo sapiens, UniProt P28223) | 2.2 |
| Fc1cccc(Cn2c(C(F)(F)F)cc3c(N4CCNCC4)cccc32)c1 | human 5-HT2A receptor (Homo sapiens, UniProt P28223) | 1.3 |
| Cc1ccc(Cn2c(C(F)(F)F)cc3c(N4CCNCC4)cccc32)o1 | human 5-HT2A receptor (Homo sapiens, UniProt P28223) | 0.48 |

* * *

Target: human GPCR 5-HT2A (Homo sapiens)
Test: Cellular aequorin-based functional assay, 5-HT2A
Assay type: cell-based
Procedure: Preparation of Solutions of Test and Reference Compounds. 1 mM stock solutions of the tested compounds were prepared in DMSO. […] Cellular aequorin-based functional assays were performed with γ-irradiated recombinant CHO-K1 cells expressing mitochondrially-targeted Aequorin, human GPCR (5-HT2A or 5-HT6) and the promiscuous G protein α16 (PerkinElemer). […] Immediate light emission generated following calcium mobilization was recorded for 30-60 seconds. […]
quantity.kind: Kb

| smiles.record | reported.value |
| --- | --- |
| Cc1ccc(Cn2c(C(F)(F)F)cc3c(N4CCNCC4)cccc32)o1 | 16 nM |
| Fc1cccc(Cn2c(C(F)(F)F)cc3c(N4CCNCC4)cccc32)c1 | 21 nM |
| FC(F)(F)c1cc2c(N3CCNCC3)cccc2n1Cc1cccc(Cl)c1 | 53 nM |
| FC(F)(F)c1cc2c(N3CCNCC3)cccc2n1Cc1ccccc1 | 31 nM |
| Cc1ccc(Cn2c(C(F)(F)F)cc3c(N4CCNCC4)cccc32)s1 | 9.8 nM |
| FC(F)(F)c1cc2c(N3CCNCC3)cccc2n1Cc1cccs1 | 5.5 nM |
| FC(F)(F)c1cc2c(N3CCNCC3)cccc2n1Cc1ccco1 | 10 nM |
| FC(F)(F)c1cc2c(N3CCNCC3)cccc2n1Cc1ccsc1 | 16 nM |

* * *

molecular target: human GPCR 5-HT6 (Homo sapiens); assay: Cellular aequorin-based functional assay, 5-HT6; assay type: cell-based; conditions: antagonist mode, reference agonist serotonin 40 nM (EC80); read-out: 5-HT6 ANT Kb
Reported Kb values follow for various molecules

| smiles.record | Kb, nM |
| --- | --- |
| Fc1cc(Cn2c(C(F)(F)F)cc3c(N4CCNCC4)cccc32)ccc1Cl | 4.4 |
| FC(F)(F)c1cc2c(N3CCNCC3)cccc2n1Cc1cccc(Cl)c1 | 1.2 |
| FC(F)(F)c1cc2c(N3CCNCC3)cccc2n1Cc1ccccc1 | 0.49 |
| CN1CCN(c2cccc3c2cc(C(F)(F)F)n3Cc2ccc(Cl)c(Cl)c2)CC1 | 9.1 |
| CN1CCN(c2cccc3c2cc(C(F)(F)F)n3Cc2cccc(F)c2)CC1 | 1.1 |

* * *

target: human GPCR 5-HT6 (Homo sapiens, UniProt P50406); experiment: Cellular aequorin-based functional assay, 5-HT6; type: cell-based; conditions: antagonist mode, reference agonist serotonin 40 nM (EC80); read-out: 5-HT6 ANT Kb
# Kb >= 0.5 nM gives Satisfied, anything below gives Not satisfied

| smiles.record | assigned.label |
| --- | --- |
| COc1cccc(Cn2c(C(F)(F)F)cc3c(N4CCNCC4)cccc32)c1 | Not satisfied |
| CN1CCN(c2cccc3c2cc(C(F)(F)F)n3Cc2ccco2)CC1 | Not satisfied |
| CN1CCN(c2cccc3c2cc(C(F)(F)F)n3Cc2ccc(F)c(F)c2)CC1 | Satisfied |
| FC(F)(F)c1cc2c(N3CCNCC3)cccc2n1Cc1ccco1 | Not satisfied |
| CN1CCN(c2cccc3c2cc(C(F)(F)F)n3Cc2cccs2)CC1 | Not satisfied |
| Cc1ccc(Cn2c(C(F)(F)F)cc3c(N4CCNCC4)cccc32)s1 | Not satisfied |
| Fc1cccc(Cn2c(C(F)(F)F)cc3c(N4CCNCC4)cccc32)c1 | Not satisfied |
| CN1CCN(c2cccc3c2cc(C(F)(F)F)n3Cc2ccc(Cl)c(F)c2)CC1 | Satisfied |
| FC(F)(F)c1cc2c(N3CCNCC3)cccc2n1Cc1cccs1 | Satisfied |
| Fc1cccc(Cn2c(C(F)(F)F)nc3c(N4CCNCC4)cccc32)c1 | Satisfied |
| FC(F)(F)c1cc2c(N3CCNCC3)cccc2n1Cc1ccsc1 | Not satisfied |

* * *

Listing of entries alongside the reported Ki.
target: UniProtKB P28223; test: 5-HT2A receptor binding assay ([3H]-ketanserin radioligand); conditions: membranes from CHO K1 cells with human 5-HT2A receptor, [3H]-ketanserin 1 nM; read-out: 5-HT2A Ki
quantity.kind: Ki (nM)

| smiles.record | quantity.kind | readout.unit | reported.value |
| --- | --- | --- | --- |
| Fc1cccc(Cn2c(C(F)(F)F)nc3c(N4CCNCC4)cccc32)c1 | Ki | nM | 2.9 |
| COc1cccc(Cn2c(C(F)(F)F)cc3c(N4CCN(C)CC4)cccc32)c1 | Ki | nM | 4.2 |
| CN1CCN(c2cccc3c2cc(C(F)(F)F)n3Cc2ccc(Cl)c(Cl)c2)CC1 | Ki | nM | 2.6 |
| CN1CCN(c2cccc3c2cc(C(F)(F)F)n3Cc2cccc(F)c2)CC1 | Ki | nM | 0.73 |
| CN1CCN(c2cccc3c2cc(C(F)(F)F)n3Cc2ccsc2)CC1 | Ki | nM | 2.3 |

Where these numbers come from: patent US20200377496A1
